biological target: Neurotensin receptor type 1 (Homo sapiens, UniProt P30989); assay: Allosteric modulation of human GFP-fused PK-tagged Gq-coupled NTR1 expressed in CHOK1 cells assessed as induction of NT (8 to 13) peptide-mediated beta-arrestin recruitment measured after 90 mins by pathhunter assay; assay type: cell-based
Sequence (P30989 whole entry, the tested form may be a part): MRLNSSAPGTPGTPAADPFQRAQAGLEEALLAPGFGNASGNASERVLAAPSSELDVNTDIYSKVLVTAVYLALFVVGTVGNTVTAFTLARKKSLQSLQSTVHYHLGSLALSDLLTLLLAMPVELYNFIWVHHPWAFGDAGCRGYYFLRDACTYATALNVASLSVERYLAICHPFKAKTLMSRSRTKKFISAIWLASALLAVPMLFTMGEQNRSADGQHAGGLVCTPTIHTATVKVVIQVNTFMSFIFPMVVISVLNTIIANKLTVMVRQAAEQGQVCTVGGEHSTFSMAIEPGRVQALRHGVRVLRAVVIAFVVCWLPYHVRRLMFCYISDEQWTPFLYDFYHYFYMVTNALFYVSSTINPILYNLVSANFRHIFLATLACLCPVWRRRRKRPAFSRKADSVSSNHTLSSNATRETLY
Rule: EC50 below 600 nM gives 1. Equal to or above 600 nM gives 0.

compound-structure | tested-system | category-label
CCCN(C)c1ccc2nc(C3CC3)nc(N3CCC(c4ccccc4OC)CC3)c2c1 | Neurotensin receptor type 1 (Homo sapiens, UniProt P30989) | 0
CCN(C)c1ccc2nc(C3CC3)nc(N3CCC(c4ccccc4OC)CC3)c2c1 | Neurotensin receptor type 1 (Homo sapiens, UniProt P30989) | 1
CCCN(C)c1cc2c(N3CCC(c4ccccc4OC)CC3)nc(C3CC3)nc2cc1C | Neurotensin receptor type 1 (Homo sapiens, UniProt P30989) | 0
COc1ccccc1C1CCN(c2nc(C3(F)CC3)nc3ccc(N(C)CCO)cc23)CC1 | Neurotensin receptor type 1 (Homo sapiens, UniProt P30989) | 1
COc1ccccc1C1CCN(c2nc(C3CC3)nc3c(F)cc(N(C)CCO)cc23)CC1 | Neurotensin receptor type 1 (Homo sapiens, UniProt P30989) | 1
CCCN(C)c1ccc2nc(C3(F)CC3)nc(N3CCC(c4ccccc4OC)CC3)c2c1 | Neurotensin receptor type 1 (Homo sapiens, UniProt P30989) | 0
COc1ccccc1C1CCN(c2nc(C3CC3)nc3ccc(N4CC[C@@H](O)C4)cc23)CC1 | Neurotensin receptor type 1 (Homo sapiens, UniProt P30989) | 1
COc1ccccc1C1CCN(c2nc(C3(F)CC3)nc3ccc(N(C)CCN4CCOCC4)cc23)CC1 | Neurotensin receptor type 1 (Homo sapiens, UniProt P30989) | 0
COc1ccccc1C1CCN(c2nc(C3CC3)nc3c(Cl)cc(N(C)CCO)cc23)CC1 | Neurotensin receptor type 1 (Homo sapiens, UniProt P30989) | 1
COc1ccccc1C1CCN(c2nc(C3CC3)nc3ccc(N4CC[C@H](OC)C4)cc23)CC1 | Neurotensin receptor type 1 (Homo sapiens, UniProt P30989) | 0
COc1ccccc1C1CCN(c2nc(C3(C)CC3)nc3ccc(N(C)CCO)cc23)CC1 | Neurotensin receptor type 1 (Homo sapiens, UniProt P30989) | 1
COc1ccccc1C1CCN(c2nc(C3(C(F)(F)F)CC3)nc3ccc(N(C)CCO)cc23)CC1 | Neurotensin receptor type 1 (Homo sapiens, UniProt P30989) | 1
COCCN(C)c1ccc2nc(C3(F)CC3)nc(N3CCC(c4ccccc4OC)CC3)c2c1 | Neurotensin receptor type 1 (Homo sapiens, UniProt P30989) | 0
COc1ccccc1C1CCN(c2nc(C3CC3)nc3cc(C)c(N(C)CCO)cc23)CC1 | Neurotensin receptor type 1 (Homo sapiens, UniProt P30989) | 1
COc1ccccc1C1CCN(c2nc(-c3ccccc3)nc3ccc(N(C)CCO)cc23)CC1 | Neurotensin receptor type 1 (Homo sapiens, UniProt P30989) | 0
COc1cc2nc(C3CC3)nc(N3CCN(c4ccccc4OC)CC3)c2cc1OC | Neurotensin receptor type 1 (Homo sapiens, UniProt P30989) | 0
COCCN(C)c1ccc2nc(C3CC3)nc(N3CCC(c4ccccc4OC)CC3)c2c1 | Neurotensin receptor type 1 (Homo sapiens, UniProt P30989) | 0
COc1ccccc1C1CCN(c2nc(C3CC3)nc3ccc(N(C)CCN4CCOCC4)cc23)CC1 | Neurotensin receptor type 1 (Homo sapiens, UniProt P30989) | 0
COc1ccccc1C1CCN(c2nc(C3(F)CCC3)nc3ccc(N(C)CCO)cc23)CC1 | Neurotensin receptor type 1 (Homo sapiens, UniProt P30989) | 1
COc1ccccc1N1CCN(c2nc(C3CC3)nc3ccc(N(C)C)cc23)CC1 | Neurotensin receptor type 1 (Homo sapiens, UniProt P30989) | 0
